Reported Inhibition values for a set of compounds
System: Escherichia coli
Settings: Concentration 32 ug.mL-1; ASSAY_TEST Inhibition of Bacterial Growth; detection method Absorption (OD600); MEDIA CAMHB; plate type 384well; NBS; CORNING #3640; time 18 hr
Description: Antibacterial activity against Escherichia coli ATCC 25922 (CO-ADD:GN_001); MIC in CAMBH media using NBS plates, by OD(600)
Results with a measured potency or affinity are listed apart.
recorded-endpoint: Inhibition (%)

> print(dat)
                                   compound  reading
1         CC/C(C)=N/NC(=O)Cc1c[nH]c2ccccc12    -3.01
2  CC1=C(CO)C(c2ccc(C#N)cc2)C(C#N)=C(N)O1 (stereo unspecified)    17.18
3           N#Cc1c(N)nc(S)c(C#N)c1-c1ccccc1     9.92
4  Nc1c2c(nc3c1CC(c1c(Cl)cccc1Cl)C(=O)N3)CCCC2 (stereo unspecified)    31.42
5                CC(=O)NC(=Cc1ccccc1)C(=O)O    10.22
6    CC(=O)Nc1nc(Cl)c(C#N)c(-c2ccccc2)c1C#N    -6.98
